Field: log10(IC50). Provide a value for each of the compounds that follow.
Test system: Trypanosoma brucei
test name: In vitro growth inhibitory activity against Trypanosoma brucei strain K243
Format: functional, organism-based
Field: value | Transform: log10 | Quantity: IC50 | Unit: µM

Consider the following illustrative entries.
c1ccc(-c2ccccc2CNCCCNCCCCCCCNCCCNCc2ccccc2-c2ccccc2)cc1 : -0.72
C1CCCC(CNCCCNCC2CCCC(CNCCCNCC3CCCCCC3)C2)CC1 (stereo unspecified) : 1.15
COc1ccccc1CNCCCNCCCCCCCNCCCNCc1ccccc1OC : 1.27

Dear colleague, could you send me log10(IC50) for each of the items below? Thanks.
1. c1ccc(CNCCCNCC2CCCC(CNCCCNCc3ccccc3)C2)cc1 (stereo unspecified)
2. CCNCCCNCCCCCCCNCCCNC[C@@H](C)CC
3. CCC(C)CNCCCNCCCCCCCNCCCNCC(C)CC (stereo unspecified)

[0.62, -0.42, -1.40]

Look up log10(IC50) for this compound: C(CNCC1CC1)CNCC1CCCC(CNCCCNCC2CC2)C1 (stereo unspecified)
1.91
